organism: Homo sapiens; experiment: Loss of compound (%metabolized) after 30 min exposure to human liver microsomes; settings: read-out: Metabolism
measured-quantity: metabolised at 0.5 h
Your reply should be a number followed by the unit it is expressed in.

Query: Input `Cc1cc(C(=O)Nc2cccn([C@@H](Cc3ccc(F)c(F)c3)C(=O)N[C@H](/C=C/C(=O)OC(C)C)C[C@@H]3CCNC3=O)c2=O)no1` , output reported metabolised at 0.5 h.
Reply: 55%

---

Target: Human rhinovirus A protease (Human rhinovirus sp.) (UniProt Q4U254)
Sequence (whole entry): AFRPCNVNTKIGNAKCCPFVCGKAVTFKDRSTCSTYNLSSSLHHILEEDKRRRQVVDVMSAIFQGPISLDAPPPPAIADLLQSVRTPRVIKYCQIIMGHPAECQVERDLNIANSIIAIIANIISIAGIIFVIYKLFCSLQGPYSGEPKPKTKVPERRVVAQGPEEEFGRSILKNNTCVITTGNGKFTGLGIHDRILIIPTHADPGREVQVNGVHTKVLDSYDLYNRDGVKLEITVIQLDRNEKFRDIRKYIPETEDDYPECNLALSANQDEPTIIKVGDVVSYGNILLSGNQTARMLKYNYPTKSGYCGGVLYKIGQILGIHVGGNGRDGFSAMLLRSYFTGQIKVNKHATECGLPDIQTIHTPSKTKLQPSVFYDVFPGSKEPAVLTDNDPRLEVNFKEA
Assay: cytotoxicity against HRV Protease 3CP (serotype 14)
Type: functional
The entries below come with measured CC50 values attached.

Query: Specify CC50 for `CCOC(=O)/C=C/[C@H](CCC(N)=O)NC(=O)[C@H](Cc1ccccc1)n1cccc(NC(=O)C2SCCS2)c1=O` and stop.
Reply: > 10 µM

Query: Retrieve CC50 measured for `CCOC(=O)/C=C/[C@H](C[C@@H]1CCNC1=O)NC(=O)[C@H](Cc1ccc(F)c(F)c1)n1cccc(NC(=O)c2cc(C)on2)c1=O` and print it.
Reply: > 10 µM

Query: // Input: `CCOC(=O)/C=C/[C@H](C[C@@H]1CCNC1=O)NC(=O)[C@H](Cc1ccccc1)n1cccc(NC(=O)OCc2ccccc2)c1=O` . Output its CC50 only.
Reply: > 1 µM

Query: Please report CC50 for the following molecule: `Cc1cc(C(=O)Nc2cccn([C@@H](Cc3ccc(F)c(F)c3)C(=O)N[C@H](/C=C/C(=O)OC(C)C)C[C@@H]3CCNC3=O)c2=O)no1`
Reply: > 10 µM

Query: Using the record for `CCOC(=O)/C=C/[C@H](C[C@@H]1CCNC1=O)NC(=O)[C@H](Cc1ccc(F)cc1)n1cccc(NC(=O)c2cc(C)on2)c1=O` , state its measured CC50.
Reply: > 10 µM

---

molecular target: Human rhinovirus A protease (Human rhinovirus sp.); assay: Inhibition of HRV Protease 3CP (serotype 14).
pEC50: −log10 of the molar value.
# pEC50 >= 8 gives met, anything below gives not met

[[record]]
compound = "CCOC(=O)/C=C/[C@H](C[C@@H]1CCNC1=O)NC(=O)[C@H](Cc1ccc(F)c(F)c1)n1cccc(NC(=O)c2cc(C)on2)c1=O"
target_entity = "Human rhinovirus A protease (Human rhinovirus sp.)"
assigned_class = "met"

[[record]]
compound = "CCOC(=O)c1ccc(OCCC2CCN(c3ccc(C)nn3)CC2)cc1"
target_entity = "Human rhinovirus A protease (Human rhinovirus sp.)"
assigned_class = "not met"


Query: Please tell me: is the compound `Cc1cc(CCCOc2c(C)cc(-c3noc(C(F)(F)F)n3)cc2C)on1` at or over 8 in terms of pEC50?
Reply: not met

Query: Please tell me: is the compound `CCOC(=O)/C=C/[C@H](C[C@H]1CCNC1=O)NC(=O)[C@H](Cc1ccccc1)n1cccc(NC(=O)OCc2ccccc2)c1=O` at or over 8 in terms of pEC50?
Reply: not met

Query: Check if pEC50 >= 8 (inclusive). Item: `CCOC(=O)/C=C/[C@H](CCC(N)=O)NC(=O)[C@H](Cc1ccc(F)c(F)c1)n1cccc(NC(=O)OCc2ccccc2)c1=O`
Reply: met

Query: Hello, I need to know if CCOC(=O)/C=C/[C@H](CCC(N)=O)NC(=O)[C@H](Cc1ccccc1)n1cccc(NC(=O)C2CCCO2)c1=O (stereo partly drawn) has measured pEC50 not below 8. Thanks!
Reply: not met

Query: Dear colleague, could you confirm whether `CCOC(=O)/C=C/[C@H](CCC(N)=O)NC(=O)[C@H](Cc1ccccc1)n1cccc(NC(=O)C2CCCC2)c1=O` has pEC50 at or above 8?
Reply: not met
